assay: Chemi-Luminescent Nitrogen Detection (CLND) kinetic solubility assay; format: physicochemical; conditions: phosphate buffered saline, pH 7.4; kinetic aqueous solubility by CLND; read-out: Solubility
Non-standard residues stand in square brackets, D forms with d. Residues, ends and D or L forms follow the SMILES beside them. *: point of attachment. dPhe(4-Cl) = N[C@H](Cc1ccc(Cl)cc1)C(=O)O; NMeN = CN[C@@H](CC(N)=O)C(=O)O; NMeL = CN[C@@H](CC(C)C)C(=O)O; dOrn = NCCC[C@@H](N)C(=O)O; tBu = CC(C)(C)*
Parameter: solubility kinetic at 1 h

input: Find the recorded solubility kinetic at 1 h belonging to CC(C)C[C@@H]1NC(=O)[C@@H](CC(C)C)NC(=O)[C@@H](CCCN)NC(=O)[C@H](CC(N)=O)NC(=O)[C@H](C(C)C)NC(=O)[C@H](Cc2c[nH]c3ccccc23)NC1=O [Compound 21c] (cyclo(LWVN[dOrn][dL])) and report it.
output: ≥ 210 µg/mL

input: What do you get for CC(C)C[C@@H]1NC(=O)[C@H](Cc2c[nH]c3ccccc23)NC(=O)[C@@H](CCCN)NC(=O)[C@H](CC(N)=O)NC(=O)[C@H](C)NC(=O)[C@@H](CC(C)C)NC1=O [Compound 5c] (cyclo(AN[dOrn]WL[dL])) ?
output: 129 µg/mL

input: Thanks! And CC(C)C[C@H]1NC(=O)[C@H](CC(C)C)N(C)C(=O)[C@H](Cc2c[nH]c3ccccc23)NC(=O)[C@@H](CCCN)NC(=O)[C@H](CC(N)=O)N(C)C(=O)[C@H](C(C)C)NC1=O [Compound 23c] (cyclo([NMeL][dL]V[NMeN][dOrn]W)) ?
output: ≥ 174 µg/mL

input: How about this molecule: CC(C)C[C@H]1NC(=O)[C@@H](Cc2ccc(Cl)cc2)NC(=O)[C@H](Cc2c[nH]c3ccccc23)NC(=O)[C@@H](CCCN)NC(=O)[C@H](CC(N)=O)NC(=O)[C@H](C(C)C)NC1=O [Compound 17c] (cyclo(N[dOrn]W[dPhe(4-Cl)][dL]V))
output: ≥ 230 µg/mL

input: CC[C@H](C)[C@@H]1NC(=O)[C@H](Cc2c[nH]c3ccccc23)NC(=O)[C@@H](CCCN)NC(=O)[C@H](CC(N)=O)NC(=O)[C@H](C(C)C)NC(=O)[C@@H](CC(C)C)NC1=O [Compound 19c] (cyclo(I[dL]VN[dOrn]W)) ?
output: ≥ 183 µg/mL

input: Also check CC[C@H](C)[C@@H]1NC(=O)[C@@H](CC(C)C)NC(=O)[C@H](CC(C)C)NC(=O)[C@H](Cc2c[nH]c3ccccc23)NC(=O)[C@@H](CCCN)NC(=O)[C@H](COC(C)(C)C)NC1=O [Compound 11c] (cyclo(IS(tBu)[dOrn]WL[dL]))
output: 202 µg/mL

input: Repeat for the following molecule: CSCC[C@@H]1NC(=O)[C@@H](CC(C)C)NC(=O)[C@H](CC(C)C)NC(=O)[C@H](Cc2c[nH]c3ccccc23)NC(=O)[C@@H](CCCN)NC(=O)[C@H](CC(N)=O)NC1=O [Compound 8c] (cyclo(L[dL]MN[dOrn]W))
output: ≥ 164 µg/mL

input: Next up: CC[C@H](C)[C@@H]1NC(=O)[C@H]([C@@H](C)CC)NC(=O)[C@@H](CC(C)C)NC(=O)[C@H](CC(C)C)NC(=O)[C@H](Cc2c[nH]c3ccccc23)NC(=O)[C@@H](CCCN)NC1=O [Compound 12c] (cyclo(II[dOrn]WL[dL]))
output: ≥ 206 µg/mL

input: Quick one: CC(C)C[C@@H]1NC(=O)[C@H](Cc2c[nH]c3ccccc23)NC(=O)[C@@H](CCCN)NC(=O)[C@@H](CCCN)NC(=O)[C@H](C(C)C)NC(=O)[C@@H](CC(C)C)NC1=O [Compound 9c] (cyclo(L[dL]V[dOrn][dOrn]W))
output: 39 µg/mL

input: Subsequent entry: CC[C@H](C)[C@@H]1NC(=O)[C@@H](CC(C)C)NC(=O)[C@H](CC(C)C)NC(=O)[C@H](Cc2c[nH]c3ccccc23)NC(=O)[C@@H](CCCNC(=N)N)NC(=O)[C@H](CC(N)=O)NC1=O [Compound 13c] (cyclo(IN[dR]WL[dL]))
output: ≥ 189 µg/mL

input: What do you get for CC[C@H](C)[C@@H]1NC(=O)[C@@H](CC(C)C)NC(=O)[C@H](CC(C)C)NC(=O)[C@H](Cc2c[nH]c3ccccc23)NC(=O)[C@@H](CCCN)NC(=O)[C@H](CO)NC1=O [Compound 10c] (cyclo(IS[dOrn]WL[dL])) ?
output: ≥ 228 µg/mL

input: Another molecule: CC(C)C[C@H]1NC(=O)[C@H](C)NC(=O)[C@H](Cc2c[nH]c3ccccc23)NC(=O)[C@@H](CCCN)NC(=O)[C@H](CC(N)=O)NC(=O)[C@H](C(C)C)NC1=O [Compound 2c] (cyclo(A[dL]VN[dOrn]W))
output: > 134 µg/mL
